experiment: NCI Yeast Anticancer Drug Screen. Data for the bub3 strain (AID 167); settings: S. cerevisiae bub3 mutant strain, at 5.0 µM (retest, dose inferred, filed as 0.5), stronger effect = higher value
The panel holds about 79,000 compounds, 15% with a hit somewhere; the sample as a whole holds those more often.
Entries annotated with measured growth inhibition

COMPOUND	growth inhibition [%]
CC(CCc1nc2ccccc2s1)(c1ccc(O)cc1)c1ccc(O)cc1	-12
Fc1cccc(NC(=S)SCc2ccc(Cl)c(Cl)c2)c1	0
CC(=O)OC(c1ccccc1)c1ccc(Cl)cc1 (centres undefined)	6
O=C1c2ccccc2-n2c1nc1ccccc1c2=O	32

----------
Examples of molecules with documented growth inhibition follow.
assay: NCI Yeast Anticancer Drug Screen. Data for the sgs1 mgt1 strain (AID 161);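 note: 0% = growth of cultures given vehicle only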; conditions: S. cerevisiae sgs1 mgt1 strain, at 50.0 µM (retest, dose inferred, filed as 5.0), stronger effect = higher value
This is part of a sample that, as a whole, favours compounds with a hit. Of some 79,000 tested, about 15% had one in any assay. Where a SMILES comes first, the peptide text is derived from it.

MOLECULE	growth inhibition / %
COc1ccc(C2SC(N)=Nc3c2c(C)nn3C(=O)c2ccc(Cl)cc2)cc1OC (configuration not stated)	0
CCOC(=O)[C@H]1Nc2ccc([N+](=O)[O-])cc2C2c3ccccc3CC21 (some centres not stated)	93
C#CC(C)(C)OC(=O)Nc1ccccc1	80
CC(C)C(NC(=O)C(N)CCC(=O)O)C(=O)O (stereo not drawn) (H-Glu-Val-OH; configuration not given here)	1
O=[N+]([O-])c1ccc2ccccc2c1O	97
Nc1ncnc2c1ncn2CCCl	10
CSc1ccc(N2C(=O)CSC2=S)cc1Cl	79
[N-]=[N+]=CC(=O)OCC1NC(=O)C(COC(=O)C=[N+]=[N-])NC1=O (configuration not stated)	3
CCC[CH2][Sn]1([CH2]CCC)[O]N=C(c2ccccc2)C(c2ccccc2)[O]1 (configuration not stated)	-1
CCN1/C(=C/C=C/C=C/c2sc3ccccc3[n+]2CC)Sc2ccccc21	11
CNC(=O)OCCN1c2ccccc2Sc2ccccc21	91
O=S(=O)(CC(Cl)c1ccccc1)c1nc2ccccc2s1 (configuration not stated)	9
O=C1/C(=C\c2ccc([N+](=O)[O-])cc2)Sc2scc(-c3ccc(O)c(O)c3)[n+]21	96
Nc1nc(=S)c2ncn(C3OC(CO)C(O)C3O)c2[nH]1 (configuration not stated)	26
CCN(CC)C(=S)Sc1nc2ccccc2s1	95
COc1c(O)cc2oc3cc(O)c(CC=C(C)C)c(O)c3c(=O)c2c1CC=C(C)C	89
O=C1c2ccccc2C(=O)N1CC[P+](c1ccccc1)(c1ccccc1)c1ccccc1	69

----------
assay: NCI Yeast Anticancer Drug Screen. Data for the mec2-1 strain (AID 157); conditions: S. cerevisiae mec2-1 strain, at 5.0 µM (retest, dose inferred, filed as 0.5), stronger effect = higher value
Compounds without any hit were thinned out: in the full panel of roughly 79,000, 15% have a hit.
In this section we review reported growth inhibition values for a set of compounds.

ENTRY SMILES	growth inhibition (%)
CCc1[nH]c(=O)nc(N)c1-c1ccc(N2CCCCC2)c([N+](=O)[O-])c1	-23
ClCCCN(CCCCl)c1ccc(C=Nc2cccc(Cl)c2)cc1	-4
c1ccc(-c2conc2-c2ccccc2)cc1	-7
